Assay: yeast display, Sf9 membrane polyspecificity reagent, FACS + sequencing; frameworks hold sequencing errors
experimental.endpoint: polyreactivity (PSR sort gate)

sequence	observed
QVQLVESGGGLVQAGGSLRLTCAASGRILVLNAMGWYRQAPGKERELVADITSGGSTYFADSVKGRFTISRDNAKNTVYLQMNSLKPEDTAVYYCAADWNTYPDYQQSYFVSYEYNYWGQGTQVTVSS	low polyreactivity
QVQLVESGGGLVQAGGSLRLSCAASGRIFTSNAMGWYRQAPGKEREFVAAITKRGGRTYYADSVKGRFTISRDNAKNTVYLQMNSLLPEDTAVYYCAAGATGTSYYGGDYWGQGTQVTVSS	high polyreactivity
QVQLVESGGGLVQAGGILRLSCAASGRIFAYYAMGWSRQAPGKERELVAAISGGGGSTYYADSVKGRFTISRDNAKNTVYLQMNSLKPEDTAVYYCAAKSSRYDYYYWGQGTQVTVSS	high polyreactivity
QVQLVDSGGGLVQAGGSLRLSCAASGSIFVKYAMGCYRQAPGKERELVAAISGSGGSTYYADSVKGRFTISRDNAKNTVSLQMNSLKPEDTAVYYCAADDYFYSGRYGFEFWGQGTQVTVSS	low polyreactivity

Origin of values: the nanobody polyreactivity screen of Harvey et al. (2022)
